- target_under_test: PD-1-Ig binding to PD-L1-TVMV-His (PD-L1-His) (Homo sapiens)
- Construct: hPDL1(19-239)-TVMV-His; made in house; host or cells: HEK293T cells
- Sequence (Q9NZQ7 with tags, fused parts or gaps): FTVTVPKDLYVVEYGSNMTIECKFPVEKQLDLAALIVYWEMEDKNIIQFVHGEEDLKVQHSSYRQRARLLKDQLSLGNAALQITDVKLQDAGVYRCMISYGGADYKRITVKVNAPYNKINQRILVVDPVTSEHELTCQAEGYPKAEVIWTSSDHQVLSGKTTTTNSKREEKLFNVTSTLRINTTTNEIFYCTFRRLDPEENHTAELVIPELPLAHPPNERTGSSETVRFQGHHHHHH
- assay_details: PD-1/PD-L1 Homogenous Time-Resolved Fluorescence (HTRF) binding assay
- test_parameters: PD-1-Ig (20 nM) / PD-L1-His (10 nM); numeric values
Non-standard residues stand in square brackets, D forms with d. Residues, ends and D or L forms follow the SMILES beside them. Trp(1-CH2COOH) = N[C@@H](Cc1cn(CC(=O)O)c2ccccc12)C(=O)O; Hyp = O=C(O)[C@@H]1C[C@@H](O)CN1; NMeNle = CCCC[C@H](NC)C(=O)O; NMeA = CN[C@@H](C)C(=O)O; Ava = NCCCCC(=O)O
Measured pIC50, listed per entry for reference.
Scale: pIC50 equals -log10([C]), with [C] in mol/L.

{"columns": ["molecule", "target_under_test", "pIC50"],
 "data": [
  ["C=C(C)C[C@@H]1NC(=O)[C@H](C)N(C)C(=O)[C@H](Cc2ccccc2)NC(=O)CNC[C@@H](C(=O)NCC(N)=O)NC(=O)[C@H](CC(C)C)NC(=O)[C@H](CCCC)N(C)C(=O)[C@H](CCCC)N(C)C(=O)[C@H](Cc2c[nH]c3ccccc23)NC(=O)[C@H](CC(C)C)NC(=O)[C@H](Cc2c[nH]c3ccccc23)NC(=O)[C@@H]2CCCN2C(=O)[C@H](CC(C)C)NC(=O)[C@H](CC(C)C)NC(=O)[C@@H]2CCCN2C1=O [Example 10005]", "PD-1-Ig binding to PD-L1-TVMV-His (PD-L1-His) (Homo sapiens)", 5.00]
]}

input: Query pIC50 for CCCC[C@H]1C(=O)N(C)[C@@H](CCCC)C(=O)N[C@@H](CC(C)C)C(=O)NCCCCC(=O)N[C@@H](Cc2ccc(O)cc2)C(=O)N(C)[C@@H](C)C(=O)N[C@@H](CC(=O)O)C(=O)N2CCC[C@H]2C(=O)N[C@@H](Cc2c[nH]cn2)C(=O)N[C@@H](CCCCN)C(=O)N2C[C@H](O)C[C@H]2C(=O)N[C@@H](Cc2c[nH]c3ccccc23)C(=O)N[C@@H](CCCCN)C(=O)N[C@@H](Cc2cn(CC(=O)O)c3ccccc23)C(=O)N1C [Example 10509] (cyclo([Ava]Y[NMeA]DPHK[Hyp]WK[Trp(1-CH2COOH)][NMeNle][NMeNle]L))
output: 6.12

###

- target_under_test: PD-1-Ig binding to PD-L1-TVMV-His (PD-L1-His) (Homo sapiens)
- Construct: hPDL1(19-239)-TVMV-His; made in house; host or cells: HEK293T cells
- assay_details: PD-1/PD-L1 Homogenous Time-Resolved Fluorescence (HTRF) binding assay
- test_parameters: PD-1-Ig (20 nM) / PD-L1-His (10 nM); range classes
- Source text: The ability of the macrocyclic peptides of the present disclosure to bind to PD-L1 was investigated using a PD-1/PD-L1 Homogenous Time-Resolved Fluorescence (HTRF) binding assay. Homogenous Time-Resolved Fluorescence (HTRF) Assays of Binding of Soluble PD-1 to Soluble PD-L1. […]
pIC50: −log10 of the molar value.
readout_label: pIC50

{"columns": ["structure_smiles", "test_value"],
 "data": [
  ["CCCC[C@H]1C(=O)N(C)[C@@H](CCCC)C(=O)N[C@@H](CC(C)C)C(=O)N[C@H](C(=O)NCC(N)=O)CCNCC(=O)N[C@@H](Cc2ccc(O)cc2)C(=O)N(C)[C@@H](C)C(=O)N[C@@H](CC(N)=O)C(=O)N2CCC[C@H]2C(=O)N[C@@H](Cc2cnc[nH]2)C(=O)N[C@@H](CCC(N)=O)C(=O)N2C[C@H](O)C[C@H]2C(=O)N[C@@H](Cc2c[nH]c3ccccc23)C(=O)NCC(=O)N[C@@H](Cc2cn(CC(=O)O)c3ccccc23)C(=O)N1C", "7.00 to 8.00"]
]}

Let us examine a further case.
input: Supply recorded pIC50 for "CCCC[C@H]1C(=O)N(C)[C@@H](CCCC)C(=O)N[C@@H](CC(C)C)C(=O)N[C@H](C(=O)NCC(N)=O)CNCC(=O)N[C@@H](Cc2ccc(O)cc2)C(=O)N(C)[C@@H](C)C(=O)N[C@@H](CC(N)=O)C(=O)N2CCC[C@H]2C(=O)N[C@@H](CCC(N)=O)C(=O)N[C@@H](CC(=O)O)C(=O)N2C[C@H](O)C[C@H]2C(=O)N[C@@H](Cc2c[nH]c3ccccc23)C(=O)N[C@@H](CC(N)=O)C(=O)N[C@@H](Cc2cn(CC(=O)O)c3ccccc23)C(=O)N1C" here.
output: 8.00 to 9.00
